Reference source: PubChem BioAssay AID1159580

Test: chemical genetic growth profiling, strain panel (AID 1159580);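 note: tested at 20 µM; growth read once vehicle control cultures reached saturation at 30 °C; 1 = growth at the plate median or of vehicle wells; lower values mean less growth of the strain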
Settings: S. cerevisiae deletion strains, growth OD, locus YLR058C, strain SHM2, stronger effect = lower value
The campaign covered roughly 5,500 compounds. About 2,000 (36%) were called active. Roughly 18% stayed inconclusive and do not appear here. The list shows a part of the results.
For each of the compounds below, state its normalized growth.
// return a plain number; no unit text

Provide normalized growth value for the following compound: Oc1ccc2c(c1)OCC1(O)Cc3cc(O)c(O)cc3C21 (stereo not given)
0.959

Retrieve normalized growth measured for CC1(C)C2CC(=O)[C@]3(C)C(CC[C@@]4(C)[C@H](c5ccoc5)OC(=O)C5OC543)[C@@]2(C)[C@@H](O)C[C@H]1O (stereo not given in full) and print it.
1.03

Give the value of normalized growth reported for the following: COc1ccc2c3c1OC1C(O)CC=C4C(C2)N(C)CCC431 (stereo not given)
1.02

Could you please provide reported normalized growth for CC(=O)Oc1ccc2c(c1OC(C)=O)OCC1(O)Cc3c(cc(OC(C)=O)c(OC(C)=O)c3OC(C)=O)C21 (stereo not given) ? Thanks!
0.898

Entry Oc1cc2c(cc1O)C1c3ccc(O)c(O)c3OCC1(O)C2 (stereo not given) needs its normalized growth filled in; supply it.
0.916
